B1: TRIM15 (parent)
chain: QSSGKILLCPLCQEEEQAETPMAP

Variants of: B1
Test: protein stability index of a GFP-peptide fusion (GPS, HEK-293T) (PSI 1-6); higher = more stable;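 note: lentivirally expressed fusions sorted by FACS into six bins by GFP to DsRed ratio, PSI derived from sequencing read proportions per bin multiplied by bin number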
Conditions: c terminus: a fixed tail appended
Where protein stability index equals or exceeds 3, the correct label is MET; where it does not, the label is NOT MET.

Request: Given `E19A` , state whether its protein stability index is at least 3.
Response: MET

Request: Given `G4P` , state whether its protein stability index is at least 3.
Response: MET

Request: Given `L8T` , state whether its protein stability index is at least 3.
Response: MET

Request: Given `M22A` , state whether its protein stability index is at least 3.
Response: MET

Request: Given `L11I` , state whether its protein stability index is at least 3.
Response: MET

Request: Given `Q13A` , state whether its protein stability index is at least 3.
Response: NOT MET

Request: Given `C9P` , state whether its protein stability index is at least 3.
Response: MET

Request: Given `P10F` , state whether its protein stability index is at least 3.
Response: NOT MET

Request: Given `G4E` , state whether its protein stability index is at least 3.
Response: MET

Request: Given `K5F` , state whether its protein stability index is at least 3.
Response: NOT MET

Request: Given `P21Y` , state whether its protein stability index is at least 3.
Response: NOT MET

Request: Given `A18P` , state whether its protein stability index is at least 3.
Response: MET

Request: Given `P24I` , state whether its protein stability index is at least 3.
Response: MET

Request: Given `L8S` , state whether its protein stability index is at least 3.
Response: MET

Request: Given `C9N` , state whether its protein stability index is at least 3.
Response: MET

Request: Given `K5D` , state whether its protein stability index is at least 3.
Response: MET

Request: Given `T20D` , state whether its protein stability index is at least 3.
Response: MET

Request: Given `I6K` , state whether its protein stability index is at least 3.
Response: MET

Request: Given `L7N` , state whether its protein stability index is at least 3.
Response: MET

Request: Given `Q1A` , state whether its protein stability index is at least 3.
Response: MET

Request: Given `P24A` , state whether its protein stability index is at least 3.
Response: MET
